- TEST_SYSTEM: CD33 (Sino Biological, Cat #12238-H08H) (UniProt P20138 18-259)
- Sequence (P20138 18-259 limits assumed): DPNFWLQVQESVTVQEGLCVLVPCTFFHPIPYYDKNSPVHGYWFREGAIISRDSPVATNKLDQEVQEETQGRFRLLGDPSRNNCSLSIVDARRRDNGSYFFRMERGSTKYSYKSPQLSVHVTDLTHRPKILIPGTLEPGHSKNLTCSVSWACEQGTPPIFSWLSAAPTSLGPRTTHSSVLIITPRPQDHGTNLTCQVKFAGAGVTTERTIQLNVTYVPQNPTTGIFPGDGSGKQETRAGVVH
- ASSAY_SUMMARY: BLI, IgG captured on anti-human Fc sensor, 50 nM CD33, pH 7.4 vs pH 5.0
- Text: Multiple CD33-binding monoclonal antibodies have been described in the literature and can be used as a template for engineering pH-dependent binding (Hamann P R et al (2002) “Gemtuzumab ozogamicin, a potent and selective anti-CD33 antibody-calicheamicin conjugate for treatment of acute myeloid leukemia.” Bioconjug Chem 13(1):47-58). Gemtuzumab (Heavy chain SEQ ID NO: 1, Light chain SEQ ID NO: 2) was selected as a CD33-binding monoclonal antibody for pH engineering via histidine scanning. […]
QUANTITY_MEASURED: binding result

Here are 9 binders together with their reported answers.
binder="MYT0508 (antibody, V domains shown, IgG; gemtuzumab VH variant #27 (N66H)) VH: EVQLVQSGAEVKKPGSSVKVSCKASGYTITDSNIHWVRQAPGQSLEWIGYIYPYNGGTDYNQKFKHRATLTVDNPTNTAYMELSSLRSEDTDFYYCVNGNPWLAYWGQGTLVTVSS VL: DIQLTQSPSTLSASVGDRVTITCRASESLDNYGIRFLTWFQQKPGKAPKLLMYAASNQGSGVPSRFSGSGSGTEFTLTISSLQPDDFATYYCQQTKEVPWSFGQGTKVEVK" quantity_measured="binding result" value_measured=binds
binder="MYT0499 (antibody, V domains shown, IgG; gemtuzumab VH variant #18 (G57H)) VH: EVQLVQSGAEVKKPGSSVKVSCKASGYTITDSNIHWVRQAPGQSLEWIGYIYPYNGHTDYNQKFKNRATLTVDNPTNTAYMELSSLRSEDTDFYYCVNGNPWLAYWGQGTLVTVSS VL: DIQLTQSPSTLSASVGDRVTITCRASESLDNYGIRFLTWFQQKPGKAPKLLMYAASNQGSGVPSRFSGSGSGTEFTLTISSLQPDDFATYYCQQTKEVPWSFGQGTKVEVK" quantity_measured="binding result" value_measured=binds
binder="MYT0492 (antibody, V domains shown, IgG; gemtuzumab VH variant #11 (Y50H)) VH: EVQLVQSGAEVKKPGSSVKVSCKASGYTITDSNIHWVRQAPGQSLEWIGHIYPYNGGTDYNQKFKNRATLTVDNPTNTAYMELSSLRSEDTDFYYCVNGNPWLAYWGQGTLVTVSS VL: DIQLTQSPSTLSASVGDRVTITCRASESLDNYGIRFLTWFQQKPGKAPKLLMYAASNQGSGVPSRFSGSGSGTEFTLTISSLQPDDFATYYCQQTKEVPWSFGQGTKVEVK" quantity_measured="binding result" value_measured=binds
binder="MYT0489 (antibody, V domains shown, IgG; gemtuzumab VH variant #8 (N33H)) VH: EVQLVQSGAEVKKPGSSVKVSCKASGYTITDSHIHWVRQAPGQSLEWIGYIYPYNGGTDYNQKFKNRATLTVDNPTNTAYMELSSLRSEDTDFYYCVNGNPWLAYWGQGTLVTVSS VL: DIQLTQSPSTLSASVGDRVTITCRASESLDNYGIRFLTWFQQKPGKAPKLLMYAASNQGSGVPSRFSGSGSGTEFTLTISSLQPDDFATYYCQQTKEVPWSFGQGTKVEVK" quantity_measured="binding result" value_measured=binds
binder="MYT0487 (antibody, V domains shown, IgG; gemtuzumab VH variant #6 (D31H)) VH: EVQLVQSGAEVKKPGSSVKVSCKASGYTITHSNIHWVRQAPGQSLEWIGYIYPYNGGTDYNQKFKNRATLTVDNPTNTAYMELSSLRSEDTDFYYCVNGNPWLAYWGQGTLVTVSS VL: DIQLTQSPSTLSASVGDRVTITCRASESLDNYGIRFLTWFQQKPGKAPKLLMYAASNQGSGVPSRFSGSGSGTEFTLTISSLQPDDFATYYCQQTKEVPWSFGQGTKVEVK" quantity_measured="binding result" value_measured=binds
binder="MYT0501 (antibody, V domains shown, IgG; gemtuzumab VH variant #20 (D59H)) VH: EVQLVQSGAEVKKPGSSVKVSCKASGYTITDSNIHWVRQAPGQSLEWIGYIYPYNGGTHYNQKFKNRATLTVDNPTNTAYMELSSLRSEDTDFYYCVNGNPWLAYWGQGTLVTVSS VL: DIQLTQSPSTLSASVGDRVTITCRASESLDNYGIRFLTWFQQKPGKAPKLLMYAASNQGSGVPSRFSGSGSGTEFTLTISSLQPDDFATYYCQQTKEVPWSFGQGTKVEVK" quantity_measured="binding result" value_measured=binds
binder="MYT0514 (antibody, V domains shown, IgG; gemtuzumab VH variant #33 (W102H)) VH: EVQLVQSGAEVKKPGSSVKVSCKASGYTITDSNIHWVRQAPGQSLEWIGYIYPYNGGTDYNQKFKNRATLTVDNPTNTAYMELSSLRSEDTDFYYCVNGNPHLAYWGQGTLVTVSS VL: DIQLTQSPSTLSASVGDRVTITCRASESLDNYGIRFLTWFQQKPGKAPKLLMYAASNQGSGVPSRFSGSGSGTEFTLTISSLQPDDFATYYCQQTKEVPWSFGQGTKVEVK" quantity_measured="binding result" value_measured=binds
binder="MYT0502 (antibody, V domains shown, IgG; gemtuzumab VH variant #21 (Y60H)) VH: EVQLVQSGAEVKKPGSSVKVSCKASGYTITDSNIHWVRQAPGQSLEWIGYIYPYNGGTDHNQKFKNRATLTVDNPTNTAYMELSSLRSEDTDFYYCVNGNPWLAYWGQGTLVTVSS VL: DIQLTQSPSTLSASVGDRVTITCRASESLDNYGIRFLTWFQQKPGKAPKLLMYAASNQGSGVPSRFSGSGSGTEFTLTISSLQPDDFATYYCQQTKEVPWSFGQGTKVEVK" quantity_measured="binding result" value_measured=binds
binder="MYT0504 (antibody, V domains shown, IgG; gemtuzumab VH variant #23 (Q62H)) VH: EVQLVQSGAEVKKPGSSVKVSCKASGYTITDSNIHWVRQAPGQSLEWIGYIYPYNGGTDYNHKFKNRATLTVDNPTNTAYMELSSLRSEDTDFYYCVNGNPWLAYWGQGTLVTVSS VL: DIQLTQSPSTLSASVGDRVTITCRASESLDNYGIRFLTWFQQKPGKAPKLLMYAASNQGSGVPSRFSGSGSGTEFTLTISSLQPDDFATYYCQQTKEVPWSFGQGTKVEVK" quantity_measured="binding result" value_measured=binds

Please fill in: binding result reported for MYT0484 (antibody, V domains shown, IgG; gemtuzumab VH variant #3 (T28H)) VH: EVQLVQSGAEVKKPGSSVKVSCKASGYHITDSNIHWVRQAPGQSLEWIGYIYPYNGGTDYNQKFKNRATLTVDNPTNTAYMELSSLRSEDTDFYYCVNGNPWLAYWGQGTLVTVSS VL: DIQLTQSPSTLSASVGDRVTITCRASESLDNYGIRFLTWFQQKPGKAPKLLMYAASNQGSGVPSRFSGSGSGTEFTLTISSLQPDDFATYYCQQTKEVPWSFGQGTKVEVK = binds
